Where do the numbers come from? From PubChem BioAssay (NCI).

# Tested on: A498 renal
# procedure_details: NCI tumour cell line growth inhibition, 48 h
Would you mind labelling by TGI? At or over 30 µM is true, under is false.

Cc1nnn(C)c1-c1cnc2c3ccc(C(C)(C)O)cc3n([C@H](c3ccccc3)C3CCOCC3)c2c1 :: false
CC1OC(n2cc(F)c(=O)[nH]c2=O)CCC1=O (stereo not given) :: true
c1cc[c]([Ge]([O]c2cccc3cccnc23)([c]2ccccc2)[c]2ccccc2)cc1 :: false
Oc1nc(N2CCOCC2)sc1/C=C1\C=Nc2ccccc21 :: true
CCCCCCCCCCCCc1ccc(S(=O)(=O)O)cc1.[Cu+2] :: true
Nc1nc(Sc2ccc([N+](=O)[O-])c3nonc23)c2ncn(C3OC(CO)C(O)C3O)c2n1 (stereo not given) :: false

Asked: Please check the record COc1ccc(OC)c(N2CC(O)=C(c3nc4ccccc4s3)C2=N)c1 and state if its TGI is at or above 30 µM.
Given back: true

Asked: Please indicate if the recorded TGI for CCN(CC)CCCNc1ccc([N+](=O)[O-])c2nc3ccccc3c(N)c12 meets or exceeds 30 µM.
Given back: false

Asked: # bool: TGI of CN1CCN(C)C1c1ccc(C2N(C)CCN2C)cc1 >= 30 µM
Given back: true

Asked: Entry O=C(CCN1CCCCC1)Nc1ccc2c(c1)C(=O)c1ccc(NC(=O)CCN3CCCCC3)cc1C2=O : is its TGI no less than 30 µM?
Given back: false

Asked: Confirm if TGI reported for the compound COc1cccc2c1C(=O)c1c(O)c3c(c(O)c1C2=O)C[C@](O)(C(=O)CO)C[C@H]3O[C@@H]1C[C@@H](NC(=O)CCCN(C)C2(c3ccc(F)cc3)CC3CCC2C3)[C@H](O)[C@@H](C)O1 (stereo not given in full) is 30 µM or above.
Given back: false

Asked: Determine whether measured TGI meets or exceeds 30 µM for COc1ccc(-c2cnc(-c3ccc(OC)cc3)n2-c2cc(OC)c(OC)c(OC)c2)cc1
Given back: true

Asked: Textbook exercise: given the entry CCOc1ccc(-c2nc3ccc(-c4nc5ccc(N6CCN(C)CC6)cc5[nH]4)cc3[nH]2)cc1 , state whether its TGI is greater than or equal to 30 µM.
Given back: false

Asked: Determine whether this compound has TGI no lower than 30 µM: COc1ccc2c(n1)Sc1nc3ccccc3nc1N2
Given back: true

Asked: API: above_or_equal(metric=TGI, cutoff=30 µM) for item CCCCN(CCCC)P(=O)(Oc1ccccc1)Oc1ccccc1
Given back: false

Asked: Form field: TGI at least 30 µM? Entry: CSc1nc(-c2ccccc2)[nH]c(=O)n1
Given back: true

Asked: Has CCOC(=O)c1cc(=O)c2cccc3c2n1CCS3 a recorded TGI greater than or equal to 30 µM?
Given back: true

Asked: Record Nc1ccc(Oc2ccc(C34CC5CC(C3)CC(c3ccc(Oc6ccc(N)cc6C(F)(F)F)cc3)(C5)C4)cc2)c(C(F)(F)F)c1 ; criterion: TGI no lower than 30 µM. Met?
Given back: true

Asked: API: above_or_equal(metric=TGI, cutoff=30 µM) for item O=CCCn1[nH]c(=O)ccc1=O
Given back: true

Asked: Can CCOC(=O)c1c(CN2CCNCC2)nc2ccc(Cl)cc2c1-c1ccccc1 be said to have TGI at or above 30 µM?
Given back: false
